Target: Vascular endothelial growth factor receptor 1 (Homo sapiens)
Details: at 1 µM
Description: GSK_PKIS: FLT1 mean inhibition at 1 uM [Nanosyn]
# thresholds on inhibition define classes: lo (below 1%), mid (1% to below 5%), hi (5% or more)

{"compound": "CCN1CCC(C(=O)Nc2n[nH]c3nnc(-c4cccc(F)c4F)cc23)CC1", "class.name": "mid"}
{"compound": "NS(=O)(=O)c1cccc(N/C=C2\\C(=O)Nc3ccccc32)c1", "class.name": "hi"}
{"compound": "CS(=O)(=O)Nc1ccc(-c2cc(-c3ccccc3)cc(C(N)=O)c2N)cc1", "class.name": "mid"}
{"compound": "COC(=O)Nc1nc2ccc(Oc3ccc(NC(=O)Nc4cc(C(F)(F)F)ccc4F)cc3)cc2s1", "class.name": "hi"}
{"compound": "COc1cccc(Nc2nccc(-c3cnn4ncccc34)n2)c1", "class.name": "hi"}
{"compound": "COc1cc(N2CCN(C(C)C)CC2)ccc1Nc1nc(Nc2cccc3ncccc23)c2cc[nH]c2n1", "class.name": "lo"}
{"compound": "c1cnn2ncc(-c3ccnc(NCCCN4CCOCC4)n3)c2c1", "class.name": "lo"}
{"compound": "CC1=C(C(=O)Nc2ccc3[nH]nc(C)c3c2)C(c2ccc(C(F)(F)F)cc2)CC(=O)N1 (centres undefined)", "class.name": "hi"}
{"compound": "O=C(O[C@H]1CN[C@H](C#Cc2cc3ncnc(Nc4ccc5c(cnn5Cc5ccccc5)c4)c3s2)C1)N1CCOCC1", "class.name": "lo"}
{"compound": "COc1ccccc1-c1cc(/C=C2\\C(=O)Nc3ncc(Br)cc32)cc(Br)c1O", "class.name": "mid"}
{"compound": "Cc1cc(O)cc(C)c1/C=C/c1cncc(C(N)=O)c1", "class.name": "mid"}
{"compound": "Fc1ccc(Nc2nccc(-c3c(-c4ccc(C(F)(F)F)cc4)nn4ncccc34)n2)cc1F", "class.name": "mid"}
{"compound": "COc1ccc2ncn(-c3cc(O[C@H](C)c4ccccc4C(F)(F)F)c(C(N)=O)s3)c2c1", "class.name": "mid"}
